Collected IC50 values appear next to each entry.
assayed.target: Human PIP4K2C (Homo sapiens, UniProt Q8TBX8)
Sequence (Q8TBX8 1-421): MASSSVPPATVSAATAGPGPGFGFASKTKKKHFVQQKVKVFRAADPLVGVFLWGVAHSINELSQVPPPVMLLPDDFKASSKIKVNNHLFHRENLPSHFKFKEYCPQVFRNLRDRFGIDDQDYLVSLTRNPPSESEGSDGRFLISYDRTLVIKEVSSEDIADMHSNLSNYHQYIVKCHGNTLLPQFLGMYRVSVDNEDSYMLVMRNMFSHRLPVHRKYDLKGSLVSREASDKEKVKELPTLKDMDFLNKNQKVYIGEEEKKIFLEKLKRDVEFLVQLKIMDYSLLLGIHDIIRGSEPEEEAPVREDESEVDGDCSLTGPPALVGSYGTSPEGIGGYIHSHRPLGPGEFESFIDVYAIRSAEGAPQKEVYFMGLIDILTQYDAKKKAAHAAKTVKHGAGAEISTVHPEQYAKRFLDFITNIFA
measurement.description: Enzyme binding assay (KINOMEscan), active site-directed competition binding
test.context: 11-point dose response, duplicate, top concentration 5 micromolar; read-out: Pip4k2c Kd: IC50

Sample records with IC50:
O=C1CCCN1c1cncc(Nc2ncc(Cl)c(N3CCc4ccccc4C3)n2)c1 = < 500 nM
O=C1CCCN1c1cncc(Nc2ncc(Cl)c(N3CCC(C4CCCCC4)C3)n2)c1 (stereo not shown) = 500 to 1000 nM
O=C(c1ccc[nH]c1=O)N1CCCC(c2nc(Nc3cncc(N4CCCC4=O)c3)ncc2Cl)C1 (stereo not shown) = < 500 nM

Then there is this molecule:
INPUT: Could you share which IC50 value was measured for `O=C1CCCN1c1cncc(Nc2ncc(Cl)c(-c3ccc(F)cc3F)n2)c1` ?
OUTPUT: < 500 nM

* * *

Examples of molecules with documented DC50 follow.
assayed.target: endogenous PIP4K2C C-terminally tagged with HiBiT peptide in MOLT-4 cells (Homo sapiens)
Construct: to C-terminally tag endogenous PIP4K2C with HiBiT peptide; host or cells: MOLT-4 (CRISPR-Cas9 knock-in clone)
Sequence (Q8TBX8 1-421): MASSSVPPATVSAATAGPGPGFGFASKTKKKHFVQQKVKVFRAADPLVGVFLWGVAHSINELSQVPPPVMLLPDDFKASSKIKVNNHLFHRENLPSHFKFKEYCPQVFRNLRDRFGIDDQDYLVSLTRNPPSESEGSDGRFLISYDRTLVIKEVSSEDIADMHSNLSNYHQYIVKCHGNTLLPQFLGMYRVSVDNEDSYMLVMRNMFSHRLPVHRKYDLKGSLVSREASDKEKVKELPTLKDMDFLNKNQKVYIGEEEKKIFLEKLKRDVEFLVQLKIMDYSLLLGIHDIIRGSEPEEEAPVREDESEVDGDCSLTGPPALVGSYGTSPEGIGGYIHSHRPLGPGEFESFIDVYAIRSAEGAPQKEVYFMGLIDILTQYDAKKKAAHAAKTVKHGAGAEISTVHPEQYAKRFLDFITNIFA
measurement.description: HiBiT PIP4K2C degradation assay in MOLT-4 cells
Type: cell-based
test.context: 24 hours, 10-point dose response, top concentration 10 micromolar, read-out: HiBIT-degradation MOLT4 PIP4k2C 24 hours DC50

O=C1CCC(Nc2ccc(N3CCC(CC(=O)N4CCC5(CC4)CCN(c4cncc(Nc6ncc(Cl)c(N7CCC[C@@H](C(F)(F)F)C7)n6)c4)C5=O)CC3)cc2)C(=O)N1 (some centres unmarked) = < 500 nM

INPUT: Which DC50 is listed for O=C1CCC(Nc2ccc(N3CCC(CC(=O)N4CCC5(CC4)CCN(c4cncc(Nc6ncc(Cl)c(N7CCC[C@H](O)C7)n6)c4)C5=O)CC3)cc2)C(=O)N1 (some centres unmarked) ?
OUTPUT: < 500 nM

INPUT: // same read-out, input: O=C(COc1ccc2c(c1)C(=O)N(C1CCC(=O)NC1=O)C2=O)NCCCCCCCCCC(=O)Nc1cncc(Nc2ncc(Cl)c(-c3cccc(-c4ccccc4)c3)n2)c1 (centres unmarked)
OUTPUT: 500 to 1000 nM

INPUT: # iterate: CN1CCC(n2cc(-c3nc(Nc4cncc(N5CCC6(CCN(C(=O)CN7CCC(c8ccc(NC9CCC(=O)NC9=O)cc8)CC7)CC6)C5=O)c4)ncc3Cl)cn2)CC1 (centres unmarked)
OUTPUT: < 500 nM

INPUT: Follow-up item: O=C1CCC(Nc2ccc(N3CCC(CN4CCC(C(=O)Nc5cncc(Nc6ncc(Cl)c(-c7cccc(-c8ccccc8)c7)n6)c5)CC4)CC3)cc2)C(=O)N1 (centres unmarked)
OUTPUT: < 500 nM
